Value source: ChEMBL document CHEMBL1122508

Test system: S49
procedure summary: In vitro biological activity against accumulation of cAMP in S49 cells as relative activity expressed as ratio of KA for isoproterenol to KA for the compound
Assay type: functional, Mus musculus
// label = 1.0 if Relative activity is not less than 1, otherwise 0.0

> print(dat)
                                   compound  cat
1  CC(CCCCC(=O)Nc1ccc(C(F)(F)F)cc1)NCC(O)c1ccc(O)c(O)c1.Cl (stereo not given)  1.0

Ask: Confirm if Relative activity reported for the compound CC(CCC(=O)O)NCC(O)c1ccc(O)c(O)c1 (stereo not given) is 1 or above.
Result: 0.0

Ask: Confirm if Relative activity reported for the compound COc1ccc(NC(=O)CCCCC(C)NCC(O)c2ccc(O)c(O)c2)cc1.Cl (stereo not given) is 1 or above.
Result: 1.0

Ask: Confirm if Relative activity reported for the compound CCCCc1ccc(NC(=O)CCCCC(C)NCC(O)c2ccc(O)c(O)c2)cc1.Cl (stereo not given) is 1 or above.
Result: 1.0

* * *

Listed here are compounds together with their documented Relative activity.
Tested on: S49
procedure summary: In vitro biological activity against accumulation of cAMP in S49 cells as relative activity expressed as ratio of KA for isoproterenol to KA for the compound
Format: functional, Mus musculus
Please reply with the number alone, leaving off any unit.

Illustrative cases are given below, each with its answer.
> print(dat)
                                   compound  test.system  measurement
1  Cc1ccc(NC(=O)CCCCC(C)NCC(O)c2ccc(O)c(O)c2)cc1.Cl (stereo unspecified)          S49           54
2  Cc1ccc(NC(=O)CCCCCC(C)NCC(O)c2ccc(O)c(O)c2)cc1.Cl (stereo unspecified)          S49         0.11
3  CC(CCCCC(=O)NC1CCCCC1)NCC(O)c1ccc(O)c(O)c1.Cl (stereo unspecified)          S49         0.17
4  CC(CCCCC(=O)O)NCC(O)c1ccc(O)c(O)c1 (stereo unspecified)          S49      0.00097
5  CC(CCCCCC(=O)O)NCC(O)c1ccc(O)c(O)c1 (stereo unspecified)          S49      0.00083
6  Cc1ccc(NC(=O)CCCC(C)NCC(O)c2ccc(O)c(O)c2)cc1.Cl (stereo unspecified)          S49         0.36
7  CC(CCCCC(=O)Nc1ccccc1C(F)(F)F)NCC(O)c1ccc(O)c(O)c1.Cl (stereo unspecified)          S49      0.00025
8  Cc1ccc(N(C)C(=O)CCCCC(C)NCC(O)c2ccc(O)c(O)c2)cc1.Cl (stereo unspecified)          S49           73

Ask: Kindly indicate its recorded Relative activity. Item: CCCCNC(=O)CCCCC(C)NCC(O)c1ccc(O)c(O)c1.Cl (stereo unspecified)
Result: 0.25

Ask: Kindly indicate its recorded Relative activity. Item: CC(CCCC(=O)O)NCC(O)c1ccc(O)c(O)c1 (stereo unspecified)
Result: 0.00068

Ask: Kindly indicate its recorded Relative activity. Item: Cc1ccc(NC(=O)CCC(C)NCC(O)c2ccc(O)c(O)c2)cc1.Cl (stereo unspecified)
Result: 0.71
